System: Strep. pheumoniae SV-1
Assay: median protective dose in mice given lethal systemic infections, Strep. pneumoniae SV-1
Assay type: in vivo
Conditions: Streptococcus pneumoniae, SV1, SC, single dose at time of challenge, read-out: median protective dose (PD50)
Protocol: The in vivo activity is obtained when the compounds are tested according to the procedure of Miller, et al (Proc. Soc. Exp. Biol. Med. 57, 261, 1944). The median protective dose (PD50) was determined in mice given lethal systemic infections. Single doses of compound were given at time of challenge. […]
readout_label: ED50 (mg/kg)

> print(dat)
                           substance.smiles  readout.label  units  numeric.value
1  C[C@@H](N)[C@H]1CCN(c2cc3c(cc2F)c(=O)c(C(=O)O)cn3C2CC2)C1           ED50  mg/kg              3
2  C[C@@H](N)[C@H]1CCN(c2nc3c(cc2F)c(=O)c(C(=O)O)cn3C2CC2)C1           ED50  mg/kg              7
3  C[C@@H](N)[C@@H]1CCN(c2cc3c(cc2F)c(=O)c(C(=O)O)cn3C2CC2)C1           ED50  mg/kg              2

* * *

system: Strep. pyogenes C-203; assay: median protective dose in mice given lethal systemic infections, Strep. pyogenes C-203; assay type: in vivo; conditions: Streptococcus pyogenes, C203, PO, single dose at time of challenge, read-out: median protective dose (PD50)
Counter-ions that a name gives are not always drawn.
readout_label: ED50 (mg/kg)

> print(dat)
                                   compound  numeric.value
1  C[C@H](N)[C@@H]1CCN(c2nc3c(cc2F)c(=O)c(C(=O)O)cn3C2CC2)C1 [Example 7]              3
2  CCN[C@@H](C)[C@@H]1CCN(c2c(F)cc3c(=O)c(C(=O)O)cn(C4CC4)c3c2OC)C1 [Example 18]            0.5
3  CN[C@H](C)[C@@H]1CCN(c2c(F)c(N)c3c(=O)c(C(=O)O)cn(C4CC4)c3c2F)C1 [Example 41]              2
4  CN[C@@H](C)[C@@H]1CCN(c2cc3c(c(C)c2F)c(=O)c(C(=O)O)cn3C2CC2)C1 [Example 67, monohydrochloride]             29
5  CCN[C@@H](C)[C@@H]1CCN(c2c(F)c(N)c3c(=O)c(C(=O)O)cn(C4CC4)c3c2F)C1 [Example 53]            0.3
6  CN[C@@H](C)[C@@H]1CCN(c2c(F)cc3c(=O)c(C(=O)O)cn(C4CC4)c3c2OC)C1 [Example 36]              1
7  C[C@H](N)[C@@H]1CCN(c2nc3c(cc2F)c(=O)c(C(=O)O)cn3-c2ccc(F)cc2F)C1 [Example 43]              1

* * *

Where a name gives a salt, the structure may show the parent alone.
// endpoint MIC / system Strep. faecalis MGH-2
readout_label: MIC

> print(dat)
                                    molecule       result
 1  CCN[C@@H](C)[C@@H]1CCN(c2c(F)c(N)c3c(=O)c(C(=O)O)cn(C4CC4)c3c2F)C1  0.013 µg/mL
 2  C[C@H](N)[C@H]1CCN(c2cc3c(cc2F)c(=O)c(C(=O)O)cn3C2CC2)C1    0.4 µg/mL
 3  C[C@H]([C@H]1CCN(c2nc3c(cc2F)c(=O)c(C(=O)O)cn3C2CC2)C1)N(C)C  0.025 µg/mL
 4  Cc1c(F)c(N2CC[C@@H]([C@H](C)N)C2)cc2c1c(=O)c(C(=O)O)cn2-c1ccc(F)cc1F [Example 65, monohydrochloride]  0.025 µg/mL
 5  COc1c(N2CC[C@@H]([C@H](C)N)C2)c(F)c(N)c2c(=O)c(C(=O)O)cn(C3CC3)c12  0.006 µg/mL
 6  CCN[C@@H](C)[C@@H]1CCN(c2nc3c(cc2F)c(=O)c(C(=O)O)cn3C2CC2)C1   0.05 µg/mL
 7  COc1c(N2CC[C@@H]([C@@H](C)N)C2)c(F)cc2c(=O)c(C(=O)O)cn(C3CC3)c12  0.025 µg/mL
 8  CN[C@H](C)[C@@H]1CCN(c2cc3c(c(C)c2F)c(=O)c(C(=O)O)cn3-c2ccc(F)cc2F)C1    0.2 µg/mL
 9  CN[C@@H](C)[C@@H]1CCN(c2c(F)c(N)c3c(=O)c(C(=O)O)cn(C4CC4)c3c2F)C1  0.013 µg/mL
10  C[C@@H](N)[C@@H]1CCN(c2nc3c(cc2F)c(=O)c(C(=O)O)cn3C2CC2)C1   0.05 µg/mL
11  CN[C@H](C)[C@@H]1CCN(c2nc3c(cc2F)c(=O)c(C(=O)O)cn3C2CC2)C1  0.025 µg/mL
12  CN[C@@H](C)[C@H]1CCN(c2c(F)c(N)c3c(=O)c(C(=O)O)cn(C4CC4)c3c2F)C1    0.2 µg/mL
13  C[C@@H]([C@H]1CCN(c2nc3c(cc2F)c(=O)c(C(=O)O)cn3C2CC2)C1)N(C)C    0.8 µg/mL

* * *

Structures can show the parent of a compound that is named as a salt.
Measurement record for Ent. cloacae MA2646; quantity recorded: log10 of MIC.
readout_label: log10 of MIC (log10 of the value in µg/mL)

> print(dat)
                                   molecule        target.entity  readout.label  numeric.value
1  C[C@H](N)[C@@H]1CCN(c2cc3c(cc2F)c(=O)c(C(=O)O)cn3C2CC2)C1  Ent. cloacae MA2646   log10 of MIC          -1.30
2  CN[C@@H](C)[C@H]1CCN(c2nc3c(cc2F)c(=O)c(C(=O)O)cn3C2CC2)C1  Ent. cloacae MA2646   log10 of MIC          -0.40
3  CN[C@H](C)[C@@H]1CCN(c2c(F)c(N)c3c(=O)c(C(=O)O)cn(C4CC4)c3c2F)C1  Ent. cloacae MA2646   log10 of MIC          -1.30
4  C[C@H](N)[C@@H]1CCN(c2nc3c(cc2F)c(=O)c(C(=O)O)cn3-c2ccc(F)cc2F)C1  Ent. cloacae MA2646   log10 of MIC          -0.70
5  CCN[C@H](C)[C@H]1CCN(c2c(F)cc3c(=O)c(C(=O)O)cn(C4CC4)c3c2OC)C1  Ent. cloacae MA2646   log10 of MIC          -0.40
6  C[C@@H](N)[C@@H]1CCN(c2nc3c(cc2F)c(=O)c(C(=O)O)cn3-c2ccc(F)cc2F)C1  Ent. cloacae MA2646   log10 of MIC          -1.00
7  CN[C@H](C)[C@H]1CCN(c2c(F)c(N)c3c(=O)c(C(=O)O)cn(C4CC4)c3c2F)C1  Ent. cloacae MA2646   log10 of MIC          -0.40
8  CN[C@@H](C)[C@@H]1CCN(c2nc3c(cc2F)c(=O)c(C(=O)O)cn3-c2ccc(F)cc2F)C1 [Example 64, monohydrochloride]  Ent. cloacae MA2646   log10 of MIC          -0.10

* * *

test system: Esch. coli Vogel; experiment: median protective dose in mice given lethal systemic infections, Esch. coli Vogel; type: in vivo; details: Escherichia coli, SC, single dose at time of challenge, read-out: median protective dose (PD50)
readout_label: ED50

> print(dat)
                                   molecule  readout.label     result
1  C[C@@H](N)[C@@H]1CCN(c2nc3c(cc2F)c(=O)c(C(=O)O)cn3C2CC2)C1 [Example 8]           ED50    1 mg/kg
2  C[C@H](N)[C@@H]1CCN(c2nc3c(cc2F)c(=O)c(C(=O)O)cn3-c2ccc(F)cc2F)C1 [Example 43]           ED50    1 mg/kg
3  CCN[C@H](C)[C@@H]1CCN(c2c(F)cc3c(=O)c(C(=O)O)cn(C4CC4)c3c2OC)C1 [Example 17]           ED50    4 mg/kg
4  CN[C@@H](C)[C@@H]1CCN(c2c(F)c(N)c3c(=O)c(C(=O)O)cn(C4CC4)c3c2F)C1 [Example 42]           ED50  0.4 mg/kg
5  C[C@@H](N)[C@H]1CCN(c2cc3c(cc2F)c(=O)c(C(=O)O)cn3C2CC2)C1 [Example 1]           ED50    2 mg/kg

Measured values drawn from patent US5563155A for this set.
